B1: Osa-1-4 twister ribozyme (parent)
chain: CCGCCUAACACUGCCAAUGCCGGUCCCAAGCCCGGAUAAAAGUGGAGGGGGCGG

# Variants of: B1
# PROTOCOL TEXT: self-cleavage, relative activity (ratio to wild type); higher = more cleavage; co-transcriptional
PARAMETER: self-cleavage
I only need the number, thanks.

G53C G54A
0.1
A29C C14A
0.02
A17C C33G
0.04

Problem: # get_value(readout='self-cleavage', item= C31G U18C )
Solution: 0.13
